Values from ChEMBL document CHEMBL3352324

# Tested on: HUVEC
# assay_method_text: Cytotoxicity against HUVEC
# Assay type: cell-based
# condition_info: Homo sapiens
metric: IC50

### Prompt Need IC50 of CO[C@H]1/C=C\C=C(/C)C(=O)NC2=C(c3ccccc3)C(=O)C(NCCN(C)C)=C(C[C@@H](C)C[C@H](OC)[C@H](O)[C@@H](C)/C=C(\C)[C@@H]1OC(N)=O)C2=O (stereo in doubt) , thanks.
### Response < 5 µM
